Tested on: PXR homodimer (NR concentration 270 nM)
Experimental Protocol: PBM binding z-score (relative to random genomic background probes); higher = stronger binding; sequences stand for … in GC…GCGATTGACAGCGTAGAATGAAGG
Would you please tag the item true when its PBM binding z-score is 0.07 or above, and false when it is below?

Solved cases below.
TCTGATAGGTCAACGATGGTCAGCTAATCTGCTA    false
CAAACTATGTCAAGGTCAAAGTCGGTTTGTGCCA    true
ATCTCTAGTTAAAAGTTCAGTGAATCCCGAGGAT    true

Problem: I'd appreciate it if you could say whether "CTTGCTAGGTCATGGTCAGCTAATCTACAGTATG" has PBM binding z-score at least equal to 0.07.
Result: false

Problem: I'd appreciate it if you could say whether "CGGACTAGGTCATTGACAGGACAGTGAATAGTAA" has PBM binding z-score at least equal to 0.07.
Result: false

Problem: Please tell me: is the sequence "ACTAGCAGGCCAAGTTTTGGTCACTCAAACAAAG" at or over 0.07 in terms of PBM binding z-score?
Result: false

Problem: Quick check, PBM binding z-score >= 0.07? "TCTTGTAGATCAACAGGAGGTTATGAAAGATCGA"
Result: false

Problem: Has "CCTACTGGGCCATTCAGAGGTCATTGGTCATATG" a recorded PBM binding z-score greater than or equal to 0.07?
Result: true

Problem: Hi, just wondering whether "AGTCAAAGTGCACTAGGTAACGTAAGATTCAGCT" shows PBM binding z-score of 0.07 or higher.
Result: true
